Recorded values, source patent US12491170B2.

# assayMethodText: Stability in cryopreserved hepatocytes, rat
# experimentalConditions: rat
Would you please tag the item 1 when its AUC is 10 µmol·min/L or above, and -1 when it is below?

These solved cases illustrate the format of a correct answer.
# molecule, assignedCategory
records = [
    ("CCCCCC(CCC1C(O)CC2Cc3c(cccc3OCC(=O)O)CC21)OC(=O)C(C)(C)C (centres unmarked)", -1),
    ("CCCCCC(CCC1C(O)CC2Cc3c(cccc3OCC(=O)O)CC21)OC(=O)C(C)C (centres unmarked)", 1),
    ("CCCCCC(CCC1C(O)CC2Cc3c(cccc3OCC(=O)O)CC21)OC(=O)OC (centres unmarked)", 1),
    ("CCCCCC(CCC1C(O)CC2Cc3c(cccc3OCC(=O)O)CC21)OC(=O)N1CCC(O)CC1 (centres unmarked)", -1),
    ("CCCCCC(CCC1C(O)CC2Cc3c(cccc3OCC(=O)O)CC21)OC(=O)NCCO (centres unmarked)", -1),
    ("CCCCCC(CCC1C(O)CC2Cc3c(cccc3OCC(=O)O)CC21)OCC(=O)O (centres unmarked)", -1),
    ("CCCCCC(CCC1C(OC(=O)OC)CC2Cc3c(cccc3OCC(=O)O)CC21)OC(=O)OC (centres unmarked) [Prodrug LXXI, treprostinil dicarbonate]", 1),
    ("CCCCCC(CCC1C(O)CC2Cc3c(cccc3OCC(=O)O)CC21)OCC (centres unmarked)", -1),
]

Q: Is the recorded value of AUC equal to or greater than 10 µmol·min/L for this molecule? CCCCCC(CCC1C(O)CC2Cc3c(cccc3OCC(=O)O)CC21)OC(C)=O (centres unmarked)
Result: 1

Q: Form field: AUC at least 10 µmol·min/L? Entry: CCCCCC(CCC1C(O)CC2Cc3c(cccc3OCC(=O)O)CC21)OC(=O)C12CC3CC(CC(C3)C1)C2 (centres unmarked)
Result: -1

Q: Tell me whether AUC is at least 10 µmol·min/L here: CCCCCC(CCC1C(O)CC2Cc3c(cccc3OCC(=O)O)CC21)OC(=O)C(N)CCCCN (centres unmarked)
Result: 1
